Average FP values by entry:
- Test description: Membrane fluidity fluorescence polarization (DPH) assay
- Condition label: PE:PG 3:1 vesicles with DPH (10 μM), SSA 1.5 mM, HEPES buffer pH 7.4, 298 K, n = 3, error = SD
Readout type: Average FP values

smiles_string=O=c1c(NCCCS(=O)(=O)O)c(Nc2ccc(C(F)(F)F)cc2)c1=O measured_number=73
smiles_string=O=C(O)CNC(=S)Nc1ccc(C(F)(F)F)cc1 measured_number=−40
smiles_string=O=C(O)CNc1c(Nc2ccc(C(F)(F)F)cc2)c(=O)c1=O measured_number=106
smiles_string=O=S(=O)(O)CCCNC(=S)Nc1ccc(C(F)(F)F)cc1 measured_number=−9

Data provenance: paper PMC12169104
